target desc: hK2 (Homo sapiens, UniProt P20151)
Construct: made in house
Sequence (P20151 25-261): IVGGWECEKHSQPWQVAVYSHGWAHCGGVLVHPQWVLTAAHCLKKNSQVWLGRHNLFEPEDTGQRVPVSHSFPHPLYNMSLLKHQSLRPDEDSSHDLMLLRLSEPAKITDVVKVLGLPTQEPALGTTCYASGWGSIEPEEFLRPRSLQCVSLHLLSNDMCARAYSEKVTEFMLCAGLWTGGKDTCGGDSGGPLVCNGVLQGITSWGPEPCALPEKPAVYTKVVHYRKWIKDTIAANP
assay overview: Kinetic analysis of hK2 inhibition by zinc
Assay type: biochemical
test conditions: two bound zinc ions model, best fit; substrates Pro-Phe-Arg-AMC and Ala-Arg-Arg-AMC, no BSA; read-out: Ki2
result type: Ki (µM)
Hi! Could you send only the number? It should be in µM, unit omitted.

Consider the compound [Cl-].[Cl-].[Zn+2] [ZnCl2] . State its measured Ki. 3.2

---

target desc: hK2 (Homo sapiens, UniProt P20151)
Construct: made in house
assay overview: Kinetic analysis of hK2 inhibition by zinc
Format: biochemical
test conditions: two bound zinc ions model, best fit; substrates Pro-Phe-Arg-AMC and Ala-Arg-Arg-AMC, no BSA; read-out: Ki1
result type: pKi
The quantity pKi is defined as the negative base-10 logarithm of the molar concentration.

Give recorded pKi. [Cl-].[Cl-].[Zn+2] [ZnCl2] 5.34

All figures here come from patent US8450280B2.
